Source listed as PubChem BioAssay AID1845205.

- System: MPNST multicellular tumor spheroids, viability % test/control
- test.protocol: Anticancer human tumor MPNST cell line growth inhibition;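 further: luminescence signal used as surrogate for viable cell amount; spheroids exposed to agents for seven days after three days of growth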
- experimental.setup: second compound 0.000949 µM; first compound 0.949 µM; stronger effect = lower value
Parameter: viability, T/C. Scope: all listed entries.

# molecule, viability, T/C
data = [
    ("CNCc1ccc(-c2cc(-c3nc(-c4ccc(S(=O)(=O)C(C)C)cc4)cnc3N)on2)cc1 + COc1cc2c(cc1O)CCNC21CSC2c3c(OC(C)=O)c(C)c4c(c3C(COC1=O)N1C(O)C3Cc5cc(C)c(OC)c(O)c5C(C21)N3C)OCO4", "46%"),
    ("Cc1sc2c(c1C)C(c1ccc(Cl)cc1)=NC(CC(=O)Nc1ccc(O)cc1)c1nnc(C)n1-2 (centres undefined) + COc1cc2c(cc1O)CCNC21CSC2c3c(OC(C)=O)c(C)c4c(c3C(COC1=O)N1C(O)C3Cc5cc(C)c(OC)c(O)c5C(C21)N3C)OCO4", "12.7%"),
    ("O=C(c1cc(Cc2n[nH]c(=O)c3ccccc23)ccc1F)N1CCN(C(=O)C2CC2)CC1 + COc1cc2c(cc1O)CCNC21CSC2c3c(OC(C)=O)c(C)c4c(c3C(COC1=O)N1C(O)C3Cc5cc(C)c(OC)c(O)c5C(C21)N3C)OCO4", "25.9%"),
]

Please look at the following molecule next.
**Q:** Give its viability, T/C value. Item: Cn1ncnc1[C@H]1c2n[nH]c(=O)c3cc(F)cc(c23)N[C@@H]1c1ccc(F)cc1 + COc1cc2c(cc1O)CCNC21CSC2c3c(OC(C)=O)c(C)c4c(c3C(COC1=O)N1C(O)C3Cc5cc(C)c(OC)c(O)c5C(C21)N3C)OCO4
**A:** 38%

====

- Test system: MPNST multicellular tumor spheroids, viability % test/control
- test.protocol: Anticancer human tumor MPNST cell line growth inhibition;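 further: luminescence signal used as surrogate for viable cell amount; spheroids exposed to agents for seven days after three days of growth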
- experimental.setup: second compound 0.003 µM; first compound 1 µM; stronger effect = lower value
I'd appreciate it if you marked entries Met when viability, T/C is lower than 30% and Not met when it is not.

Consider the following illustrative entries.
# compound, classification
rows = [
    ("Cc1cc(C)c(CNC(=O)c2cc(-c3ccc(CN4CCOCC4)cc3)cc3c2cnn3C2CCCC2)c(=O)[nH]1 + COc1cc2c(cc1O)CCNC21CSC2c3c(OC(C)=O)c(C)c4c(c3C(COC1=O)N1C(O)C3Cc5cc(C)c(OC)c(O)c5C(C21)N3C)OCO4", "Met"),
    ("CC(C)n1c(=O)n(C)c2cnc3cc(F)c(-c4ccc(OCCCN5CCCCC5)nc4)cc3c21 + COc1cc2c(cc1O)CCNC21CSC2c3c(OC(C)=O)c(C)c4c(c3C(COC1=O)N1C(O)C3Cc5cc(C)c(OC)c(O)c5C(C21)N3C)OCO4", "Met"),
]

**Q:** Identify whether the compound CC(C)n1c(=O)n(C)c2cnc3cc(F)c(-c4ccc(OCCCN5CCCCC5)nc4)cc3c21 + CC[C@@]1(O)C(=O)OCc2c1cc1n(c2=O)Cc2cc3c(CN(C)C)c(O)ccc3nc2-1 records viability, T/C below 30%.
**A:** Not met

====

- Test system: MPNST multicellular tumor spheroids, viability % test/control
- test.protocol: Anticancer human tumor MPNST cell line growth inhibition;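 further: luminescence signal used as surrogate for viable cell amount; spheroids exposed to agents for seven days after three days of growth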
- experimental.setup: second compound 94.9 pM; first compound 0.1 µM; stronger effect = lower value
result.type: viability, T/C (%)
Response body: numeric value in %, unit text excluded.

Field: example entries. Status: answers known.
# compound, viability, T/C (%)
data = [
    ("[2H]c1nc(C)nc([2H])c1-c1cc(NC[C@@H](C)c2cccc3c(C(=O)NC)ccnc23)ncn1 + COc1cc2c(cc1O)CCNC21CSC2c3c(OC(C)=O)c(C)c4c(c3C(COC1=O)N1C(O)C3Cc5cc(C)c(OC)c(O)c5C(C21)N3C)OCO4", 83),
    ("CC1COCCN1c1cc(-c2ccnn2C)c2ccnc(-c3ccn[nH]3)c2n1 (stereo unspecified) + COc1cc2c(cc1O)CCNC21CSC2c3c(OC(C)=O)c(C)c4c(c3C(COC1=O)N1C(O)C3Cc5cc(C)c(OC)c(O)c5C(C21)N3C)OCO4", 44.8),
    ("COc1ccc([C@@H](O)c2cc(-c3ncnc4cc(N5CCOCC5)ccc34)c(F)cc2Cl)nn1 + COc1cc2c(cc1O)CCNC21CSC2c3c(OC(C)=O)c(C)c4c(c3C(COC1=O)N1C(O)C3Cc5cc(C)c(OC)c(O)c5C(C21)N3C)OCO4", 74.7),
    ("CC(C)n1c(=O)n(C)c2cnc3cc(F)c(-c4ccc(OCCCN5CCCCC5)nc4)cc3c21 + COc1cc2c(cc1O)CCNC21CSC2c3c(OC(C)=O)c(C)c4c(c3C(COC1=O)N1C(O)C3Cc5cc(C)c(OC)c(O)c5C(C21)N3C)OCO4", 68.9),
    ("Cc1cc(C)c(CNC(=O)c2cc(-c3ccc(CN4CCOCC4)cc3)cc3c2cnn3C2CCCC2)c(=O)[nH]1 + COc1cc2c(cc1O)CCNC21CSC2c3c(OC(C)=O)c(C)c4c(c3C(COC1=O)N1C(O)C3Cc5cc(C)c(OC)c(O)c5C(C21)N3C)OCO4", 89.8),
]

// switching to the query compound
**Q:** # input compound: COc1cc(C)[nH]c(=O)c1CN1CCc2c(Cl)cc(C(OC)C3COC3)c(Cl)c2C1=O (stereo unspecified) + COc1cc2c(cc1O)CCNC21CSC2c3c(OC(C)=O)c(C)c4c(c3C(COC1=O)N1C(O)C3Cc5cc(C)c(OC)c(O)c5C(C21)N3C)OCO4 ; wanted: its viability, T/C
**A:** 78.4
